Task for the reader: assign each of the following compounds its reported solubility kinetic.
Test: kinetic solubility assay
Format: physicochemical
Conditions: pH 7.4; read-out: Kinetic Solubility pH 7.4
Numeric answer plus unit only.

{"columns": ["structure", "solubility kinetic"],
 "data": [
  ["N#Cc1ccc2c(c1)[nH]c(=O)n2[C@H]1C[C@H](c2nnc(-c3ccncn3)n2-c2ccccc2Cl)C1", "12 µM"]
]}

Moving on to the next compound.
Recorded result, N#Cc1ccc2c(c1)[nH]c(=O)n2C12CC(c3nnc(-c4ccncn4)n3-c3ccccc3Cl)(C1)C2 , solubility kinetic: 1.5 µM

---

Experiment: kinetic solubility assay
Assay type: physicochemical
Details: PBS, pH = 7
readout.type: solubility kinetic

Per the record, N#Cc1ccc2c(c1)[nH]c(=O)n2[C@H]1C[C@H](c2nnc(-c3ccncn3)n2-c2ccccc2Cl)C1 [compound 1] has solubility kinetic of 12 µM

---

Assay: microsomal stability, mouse liver microsomes
Format: in vitro ADME
Details: pH 7.4, read-out: Microsomal stability t1/2 mouse
readout.type: half-life at 1 μM (min)
One number for each entry, in min.

{"columns": ["structure", "unit.string", "recorded.result"],
 "data": [
  ["N#Cc1ccc2c(c1)[nH]c(=O)n2C12CC(c3nnc(-c4ccncn4)n3-c3ccccc3Cl)(C1)C2", "min", 5]
]}

Could you now look at the following molecule, please?
# half-life at 1 μM of N#Cc1ccc2c(c1)[nH]c(=O)n2[C@H]1C[C@H](c2nnc(-c3ccncn3)n2-c2ccccc2Cl)C1 = 7

---

Assay: kinetic solubility assay
Format: physicochemical
Details: pH 7.4; Table 2
readout.type: solubility (µM)
Give bare numbers, in µM.

{"columns": ["structure", "unit.string", "recorded.result"],
 "data": [
  ["O=C(N[C@H]1C[C@H](c2nnc(-c3ccc(OC(F)F)cn3)n2-c2ccccc2F)C1)c1ccnc2cccnc12", "µM", 14]
]}

Lookup result for O=C(N[C@H]1C[C@H](c2nnc(-c3ccc(OC(F)F)cn3)n2-c2ccccc2F)C1)c1ccnc2cc(F)cnc12 ; measured solubility: 54

---

Test: Caco-2 permeability
Assay type: in vitro ADME
Settings: human, A-B, read-out: Caco-2 permeability Papp AB
readout.type: Papp A→B (×10⁻⁶ cm/s)
Give bare numbers, in ×10⁻⁶ cm/s.

Documented Papp A→B of N#Cc1ccc2c(c1)[nH]c(=O)n2[C@H]1C[C@H](c2nnc(-c3ccncn3)n2-c2ccccc2Cl)C1 [compound 1] : 10

---

Assay: in vivo
Details: mouse, in vivo, po, 5 mg/kg
readout.type: bioavailability (%)
One number for each entry, in %.

Entry N#Cc1ccc2c(c1)[nH]c(=O)n2[C@H]1C[C@H](c2nnc(-c3ccncn3)n2-c2ccccc2Cl)C1 — recorded bioavailability = 47

---

Test system: PARPs/ARTDs ARTD1/2/3/4/7/8/10/12
Assay: PARP/ARTD family selectivity, biochemical assays
readout.type: IC50

The reported value for N#Cc1ccc2c(c1)[nH]c(=O)n2[C@H]1C[C@H](c2nnc(-c3ccncn3)n2-c2ccccc2Cl)C1 [compound 1] in terms of IC50 is > 10 µM

---

Assay: in vivo
Conditions: mouse, in vivo, po, 5 mg/kg
readout.type: AUC(0-inf) (ng·h/mL)
Answers are plain numbers, in ng·h/mL.

Given item N#Cc1ccc2c(c1)[nH]c(=O)n2[C@H]1C[C@H](c2nnc(-c3ccncn3)n2-c2ccccc2Cl)C1 , the value recorded as its AUC(0-inf) is 147

---

System: WNT/β-catenin signaling pathway reporter in HEK293 cells
Experiment: cells
Assay type: cell-based, human
Conditions: Homo sapiens, HEK293, read-out: HEK293 IC50, WNT/β-catenin reporter
Assignment: determine reported IC50 for the given compounds.
The answer should read as a number with its unit following.

Example entries and their recorded answers appear below.
{"columns": ["structure", "readout.type", "recorded.result"],
 "data": [
  ["Cn1c(=O)n([C@H]2C[C@H](c3nnc(-c4ccncn4)n3-c3ccccc3Cl)C2)c2ccc(C#N)cc21", "IC50", "116 nM"],
  ["N#Cc1ccc2c(c1)oc(=O)n2[C@H]1C[C@H](c2nnc(-c3ccncn3)n2-c2ccccc2Cl)C1", "IC50", "274 nM"]
]}

Now consider a different compound.
Notebook: N#Cc1ccc2c(c1)[nH]c(=O)n2C12CC(c3nnc(-c4ccncn4)n3-c3ccccc3Cl)(C1)C2 , IC50 read as 4.7 nM

---

Experiment: in vivo
Settings: mouse, in vivo, po, 5 mg/kg, T1/2, mouse po 5 mg/kg
readout.type: half-life

The molecule listed as N#Cc1ccc2c(c1)[nH]c(=O)n2[C@H]1C[C@H](c2nnc(-c3ccncn3)n2-c2ccccc2Cl)C1 has a reported half-life of 1.51 h

---

Test: in vivo
Details: mouse, in vivo, po, 5 mg/kg
readout.type: AUC(0-t) (ng·h/mL)
Answers are plain numbers, in ng·h/mL.

Recorded AUC(0-t) (molecule N#Cc1ccc2c(c1)[nH]c(=O)n2[C@H]1C[C@H](c2nnc(-c3ccncn3)n2-c2ccccc2Cl)C1 ): 145

---

Assay: Caco-2 permeability
Format: in vitro ADME
Conditions: human, A-B, read-out: Caco-2 permeability Papp AB
readout.type: Papp A→B at 2 h, 10 µM (×10⁻⁶ cm/s)
Numbers only, in ×10⁻⁶ cm/s.

Measured Papp A→B at 2 h, 10 µM of N#Cc1ccc2c(c1)[nH]c(=O)n2C12CC(c3nnc(-c4ccncn4)n3-c3ccccc3Cl)(C1)C2 : 5

---

Answer each item with its documented solubility.
Experiment: kinetic solubility assay
Assay type: physicochemical
Settings: pH 7.4; Table 2

Field: example entries. Status: answers known.
{"columns": ["structure", "solubility"],
 "data": [
  ["Cc1cccc(-c2nnc([C@H]3C[C@H](NC(=O)c4ccnc5cc(F)cnc45)C3)n2-c2ccccc2F)n1", "> 80 µM"],
  ["O=C(N[C@H]1C[C@H](c2nnc(-c3ccccn3)n2-c2ccccc2F)C1)c1ccnc2cccnc12", "> 80 µM"]
]}

Now consider a different compound.
Lab note: Cc1cccc(-c2nnc([C@H]3C[C@H](NC(=O)c4ccnc5cccnc45)C3)n2-c2ccccc2F)n1 gave solubility of > 80 µM

These data points were gathered from paper PMC8008393.
